TGI values, listed per item
- System: UACC-62
- PROTOCOL: Growth inhibition of human UACC62 cells incubated for 48 hrs by sulforhodamine B assay
- Type: functional
- CONDITION_DESCRIPTION: UACC-62, 48 h
Unit µM implied. Number only.

Worked examples, 4 compounds total:
{"COMPOUND": "C=C1CC[C@@H]2[C@](C)(COC(C)=O)[C@H](OC(C)=O)CC[C@@]2(C)[C@H]1CC(Nc1ccc(S(=O)(=O)Nc2cc(C)on2)cc1)C1=CCOC1=O (stereo not given in full)", "VALUE_KIND": "TGI", "TEST_VALUE": 7.06}
{"COMPOUND": "C=C1CC[C@@H]2[C@](C)(COC(C)=O)[C@H](OC(C)=O)CC[C@@]2(C)[C@H]1CC(Nc1ccc(S(=O)(=O)Nc2nccs2)cc1)C1=CCOC1=O (stereo not given in full)", "VALUE_KIND": "TGI", "TEST_VALUE": 4.42}
{"COMPOUND": "C=C1CC[C@@H]2[C@](C)(COC(C)=O)[C@H](OC(C)=O)CC[C@@]2(C)[C@H]1CC(Nc1ccc(S(=O)(=O)Nc2ncccn2)cc1)C1=CCOC1=O (stereo not given in full)", "VALUE_KIND": "TGI", "TEST_VALUE": 2.56}
{"COMPOUND": "C=C1CC[C@@H]2[C@](C)(COC(C)=O)[C@H](OC(C)=O)CC[C@@]2(C)[C@H]1CC(Nc1ccc(S(=O)(=O)Nc2nccc(C)n2)cc1)C1=CCOC1=O (stereo not given in full)", "VALUE_KIND": "TGI", "TEST_VALUE": 7.12}

Query: Look up TGI for this compound: C=C1CC[C@@H]2[C@](C)(COC(C)=O)[C@H](OC(C)=O)CC[C@@]2(C)[C@H]1CC(Nc1ccc(S(=O)(=O)Nc2ccc(Cl)nn2)cc1)C1=CCOC1=O (stereo not given in full)
Response: 3.86

* * *

- System: HOP-92
- PROTOCOL: Growth inhibition of human HOP92 cells incubated for 48 hrs by sulforhodamine B assay
- Assay type: functional
- CONDITION_DESCRIPTION: HOP-92, 48 h
TGI values, listed per item
Unit µM implied. Number only.

Query: I'm curious: which TGI was measured for C=C1CC[C@@H]2[C@](C)(COC(C)=O)[C@H](OC(C)=O)CC[C@@]2(C)[C@H]1CC(Nc1ccc(S(=O)(=O)Nc2ncccn2)cc1)C1=CCOC1=O (stereo not given in full) tested on HOP-92?
Response: 8.85

Query: I'm curious: which TGI was measured for C=C1CC[C@@H]2[C@](C)(COC(C)=O)[C@H](OC(C)=O)CC[C@@]2(C)[C@H]1CC(Nc1ccc(S(=O)(=O)Nc2ccc(Cl)nn2)cc1)C1=CCOC1=O (stereo not given in full) tested on HOP-92?
Response: 7.89

* * *

- Test system: UACC-257
- PROTOCOL: Anticancer activity against human UACC257 cells assessed as cell growth at 10 uM after 48 hrs by sulforhodamine B assay relative to control
- Type: functional
- CONDITION_DESCRIPTION: UACC-257, 48 h, read-out: Activity
VALUE_KIND: growth at 10 µM (%)
Unit % implied. Number only.

Worked examples, 4 compounds total:
{"COMPOUND": "C=C1CC[C@@H]2[C@](C)(COC(C)=O)[C@H](OC(C)=O)CC[C@@]2(C)[C@H]1CC(Nc1ccc(S(=O)(=O)Nc2nc(C)cc(C)n2)cc1)C1=CCOC1=O (stereo partly specified)", "TARGET_OF_ASSAY": "UACC-257", "TEST_VALUE": 67.9}
{"COMPOUND": "C=C1CC[C@@H]2[C@](C)(COC(C)=O)[C@H](OC(C)=O)CC[C@@]2(C)[C@H]1CC(Nc1ccc(S(=O)(=O)Nc2nccs2)cc1)C1=CCOC1=O (stereo partly specified)", "TARGET_OF_ASSAY": "UACC-257", "TEST_VALUE": 22.4}
{"COMPOUND": "C=C1CC[C@@H]2[C@](C)(COC(C)=O)[C@H](OC(C)=O)CC[C@@]2(C)[C@H]1CC(Nc1ccc(S(=O)(=O)Nc2cc(C)on2)cc1)C1=CCOC1=O (stereo partly specified)", "TARGET_OF_ASSAY": "UACC-257", "TEST_VALUE": 69}
{"COMPOUND": "C=C1CC[C@@H]2[C@](C)(COC(C)=O)[C@H](OC(C)=O)CC[C@@]2(C)[C@H]1CC(Nc1ccc(S(=O)(=O)Nc2nccc(C)n2)cc1)C1=CCOC1=O (stereo partly specified)", "TARGET_OF_ASSAY": "UACC-257", "TEST_VALUE": 48.5}

Query: Look up growth at 10 µM for this compound: C=C1CC[C@@H]2[C@](C)(COC(C)=O)[C@H](OC(C)=O)CC[C@@]2(C)[C@H]1CC(Nc1ccc(S(=O)(=O)Nc2ncccn2)cc1)C1=CCOC1=O (stereo partly specified)
Response: 16.6

Query: Look up growth at 10 µM for this compound: C=C1CC[C@@H]2[C@](C)(COC(C)=O)[C@H](OC(C)=O)CC[C@@]2(C)[C@H]1CC(Nc1ccc(S(=O)(=O)Nc2ccc(Cl)nn2)cc1)C1=CCOC1=O (stereo partly specified)
Response: 44

* * *

- System: OVCAR-8
- PROTOCOL: Growth inhibition of human OVCAR8 cells incubated for 48 hrs by sulforhodamine B assay
- Format: functional
- CONDITION_DESCRIPTION: OVCAR-8, 48 h
Mark yes (1) only when TGI stays strictly below 9 µM. Values equal to the cut-off are no (0).

Here's what some known entries look like.
{"COMPOUND": "C=C1CC[C@@H]2[C@](C)(COC(C)=O)[C@H](OC(C)=O)CC[C@@]2(C)[C@H]1CC(Nc1ccc(S(=O)(=O)Nc2ccc(Cl)nn2)cc1)C1=CCOC1=O (stereo not given in full)", "CATEGORY": "yes (1)"}
{"COMPOUND": "C=C1CC[C@@H]2[C@](C)(COC(C)=O)[C@H](OC(C)=O)CC[C@@]2(C)[C@H]1CC(Nc1ccc(S(=O)(=O)Nc2ncccn2)cc1)C1=CCOC1=O (stereo not given in full)", "CATEGORY": "yes (1)"}
{"COMPOUND": "C=C1CC[C@@H]2[C@](C)(COC(C)=O)[C@H](OC(C)=O)CC[C@@]2(C)[C@H]1CC(Nc1ccc(S(=O)(=O)Nc2nccs2)cc1)C1=CCOC1=O (stereo not given in full)", "CATEGORY": "no (0)"}
{"COMPOUND": "C=C1CC[C@@H]2[C@](C)(COC(C)=O)[C@H](OC(C)=O)CC[C@@]2(C)[C@H]1CC(Nc1ccc(S(=O)(=O)Nc2nccc(C)n2)cc1)C1=CCOC1=O (stereo not given in full)", "CATEGORY": "yes (1)"}

We now examine a further compound.
Query: Is it true that TGI reported for C=C1CC[C@@H]2[C@](C)(COC(C)=O)[C@H](OC(C)=O)CC[C@@]2(C)[C@H]1CC(Nc1ccc(S(=O)(=O)Nc2cc(C)on2)cc1)C1=CCOC1=O (stereo not given in full) is less than 9 µM?
Response: yes (1)

* * *

- Test system: M14
- PROTOCOL: Anticancer activity against human M14 cells assessed as cell growth at 10 uM after 48 hrs by sulforhodamine B assay relative to control
- Type: functional
- CONDITION_DESCRIPTION: M14, 48 h, read-out: Activity
Class 1: growth at 10 µM at least 10%. Class -1: growth at 10 µM below 10%.

Query: Please tell me: is the compound C=C1CC[C@@H]2[C@](C)(COC(C)=O)[C@H](OC(C)=O)CC[C@@]2(C)[C@H]1CC(Nc1ccc(S(=O)(=O)Nc2ccc(Cl)nn2)cc1)C1=CCOC1=O (stereo partly specified) at or over 10% in terms of growth at 10 µM?
Response: 1

Query: Please tell me: is the compound C=C1CC[C@@H]2[C@](C)(COC(C)=O)[C@H](OC(C)=O)CC[C@@]2(C)[C@H]1CC(Nc1ccc(S(=O)(=O)Nc2nccc(C)n2)cc1)C1=CCOC1=O (stereo partly specified) at or over 10% in terms of growth at 10 µM?
Response: 1

Query: Please tell me: is the compound C=C1CC[C@@H]2[C@](C)(COC(C)=O)[C@H](OC(C)=O)CC[C@@]2(C)[C@H]1CC(Nc1ccc(S(=O)(=O)Nc2nc(C)cc(C)n2)cc1)C1=CCOC1=O (stereo partly specified) at or over 10% in terms of growth at 10 µM?
Response: 1

Query: Please tell me: is the compound C=C1CC[C@@H]2[C@](C)(COC(C)=O)[C@H](OC(C)=O)CC[C@@]2(C)[C@H]1CC(Nc1ccc(S(=O)(=O)Nc2ncccn2)cc1)C1=CCOC1=O (stereo partly specified) at or over 10% in terms of growth at 10 µM?
Response: -1

Query: Please tell me: is the compound C=C1CC[C@@H]2[C@](C)(COC(C)=O)[C@H](OC(C)=O)CC[C@@]2(C)[C@H]1CC(Nc1ccc(S(=O)(=O)Nc2cc(C)on2)cc1)C1=CCOC1=O (stereo partly specified) at or over 10% in terms of growth at 10 µM?
Response: 1

Query: Please tell me: is the compound C=C1CC[C@@H]2[C@](C)(COC(C)=O)[C@H](OC(C)=O)CC[C@@]2(C)[C@H]1CC(Nc1ccc(S(=O)(=O)Nc2nccs2)cc1)C1=CCOC1=O (stereo partly specified) at or over 10% in terms of growth at 10 µM?
Response: -1
